# Tested on: blood cell counts after cyclophosphamide
# test_summary: Hematopoietic recovery after cyclophosphamide (Example 63)
# Format: in vivo, Balb-C mice
# test_parameters: 7 days after CP; 25 mg/kg TriPdG or molar equivalent
# Procedure: Fifty-eight female Balb-C mice weighing approximately 20 grams each received a single injection of cyclophosphamide (250 mg/kg, i.p.), and were then distributed into a vehicle control group (0.2% Tween-80+7.5% DMSO in saline; n=12) or one of five treatment groups: Vehicle or treatment agents were administered to mice once daily for five days at a volume of 0.4 ml by i.p. injection. TriPdG was given at a dose of 25 mg/kg/treatment. […]
reported_metric: Spleen (mg)
Write the answer as a number in mg, unit excluded.

Before answering, review these 3 worked examples.
>>> observed_measurement("CCCCCCCC/C=C\\CCCCCCCC(=O)Nc1nc2c(ncn2[C@H]2C[C@H](OC(=O)CCCCCCC/C=C\\CCCCCCCC)[C@@H](COC(=O)CCCCCCC/C=C\\CCCCCCCC)O2)c(=O)[nH]1")
59
>>> observed_measurement("CCCCCCCCCCCCCCCC(=O)Nc1nc2c(ncn2[C@H]2C[C@H](OC(=O)CCCCCCCCCCCCCCC)[C@@H](COC(=O)CCCCCCCCCCCCCCC)O2)c(=O)[nH]1")
198
>>> observed_measurement("CCCCCCCCCCCCCCCC(=O)OC[C@H]1O[C@@H](n2cnc3c(=O)[nH]c(NC(=O)C(C)C)nc32)C[C@@H]1O")
69

Which Spleen is listed for CCCCCCCCCCCCCCCCCC(=O)Nc1nc2c(ncn2[C@H]2C[C@H](OC(=O)CCCCCCCCCCCCCCCCC)[C@@H](COC(=O)CCCCCCCCCCCCCCCCC)O2)c(=O)[nH]1 ?
85

----------
Entries and their measured activity at 10 µg/mL follow.
# System: FDCPmix cells
# test_summary: Proliferation of FDCPmix cells, MTT assay (Example 69)
# Format: cell-based
# test_parameters: 48 h; read-out: Cell proliferation
Write the answer as a number in %, unit excluded.

Before answering, review these 3 worked examples.
>>> observed_measurement("CCCCCCCC/C=C\\CCCCCCCC(=O)Nc1nc2c(ncn2[C@H]2C[C@H](OC(=O)CCCCCCC/C=C\\CCCCCCCC)[C@@H](COC(=O)CCCCCCC/C=C\\CCCCCCCC)O2)c(=O)[nH]1")
110
>>> observed_measurement("CCCCCCCC(=O)Nc1nc2c(ncn2[C@H]2C[C@H](OC(=O)CCCCCCC)[C@@H](COC(=O)CCCCCCC)O2)c(=O)[nH]1")
107
>>> observed_measurement("CCCCCCCC(=O)OC[C@H]1O[C@@H](n2cnc3c(=O)[nH]c(N)nc32)C[C@@H]1OC(=O)CCCCCCC")
100

// next item, activity at 10 µg/mL requested
Which activity at 10 µg/mL is listed for CCCCCCCCCCCCCCCC(=O)Nc1nc2c(ncn2[C@H]2C[C@H](OC(=O)CCCCCCCCCCCCCCC)[C@@H](COC(=O)CCCCCCCCCCCCCCC)O2)c(=O)[nH]1 ?
51
